# Study target: recombinant human GST-Syk (Homo sapiens, UniProt P43405)
# Construct: purchased Carna Biosciences 08-176
# Assay comment: Homogeneous Time-Resolved Fluorescence (HTRF) assay for the recombinant human Syk enzyme
# Type: biochemical
# Run conditions: recombinant human GST-Syk 5 pM, ATP 25 μM, 10-dose titration 10 μM to 0.508 nM; read-out: rhSYK Activity IC50
Could you mark each record t if its IC50 falls strictly under 10 nM, and f if it equals or exceeds it?

# Compound, Study target, Class label
data = [
    ("Cc1cc(Nc2cc(C(F)(F)F)ccn2)nc(-c2cn(C3CCCCC(O)C3O)nn2)c1 (single isomer, unassigned) [Example 10.6]", "recombinant human GST-Syk (Homo sapiens, UniProt P43405)", "t"),
    ("Cc1cc(Nc2cc(C(F)(F)F)ccn2)nc(-c2cn(Cc3nnn[nH]3)nn2)c1", "recombinant human GST-Syk (Homo sapiens, UniProt P43405)", "f"),
    ("Cc1cc(Nc2cc(C(F)(F)F)ccn2)nc(-c2cn([C@H](C)C(=O)NCC(=O)O)nn2)c1", "recombinant human GST-Syk (Homo sapiens, UniProt P43405)", "t"),
    ("Cc1cc(Nc2nccc(C(F)(F)F)n2)cc(-c2cn(Cc3ccc(C(=O)O)cc3)nn2)c1", "recombinant human GST-Syk (Homo sapiens, UniProt P43405)", "t"),
    ("Cc1cc(Nc2nccc(C(F)(F)F)n2)cc(-n2cc(C3(O)CCC(C(N)=O)C(C)(C)C3)nn2)c1 (stereo not shown)", "recombinant human GST-Syk (Homo sapiens, UniProt P43405)", "f"),
    ("COC(=O)[C@H]1CC[C@](O)(c2cn(-c3cc(C)cc(Nc4nccc(C(F)(F)F)n4)c3)nn2)CC1(C)C", "recombinant human GST-Syk (Homo sapiens, UniProt P43405)", "f"),
]

With those in mind, consider the next compound.
Please state whether IC50 is below 10 nM for "Cc1cc(Nc2cc(C(F)(F)F)ccn2)nc(-c2cn([C@@H](C)C(=O)N3CCC[C@H]3C(=O)O)nn2)c1"
f

---

# Study target: recombinant human GST-Syk (Homo sapiens)
# Construct: purchased Carna Biosciences 08-176
# Assay comment: Homogeneous Time-Resolved Fluorescence (HTRF) assay for the recombinant human Syk enzyme
# Format: biochemical
# Run conditions: recombinant human GST-Syk 5 pM, ATP 25 μM, 10-dose titration 10 μM to 0.508 nM; read-out: rhSYK Activity IC50
Experimental endpoint: pIC50
A value of pIC50 is the negative decimal logarithm of a concentration given in moles per litre.

Some solved cases for reference:
# Compound, Study target, pIC50
records = [
    ("Cc1cc(Nc2nccc(C(F)(F)F)n2)cc(-c2cn(C3COCC3O)nn2)c1 (single isomer, unassigned) [Example 4.4]", "recombinant human GST-Syk (Homo sapiens)", 7.58),
    ("COc1nc(Nc2cc(C)cc(-c3cn(CC(C)(O)C(C)(C)O)nn3)c2)ncc1Cl (stereo not shown) [Example 21.16]", "recombinant human GST-Syk (Homo sapiens)", 7.30),
    ("Cc1cc(Nc2nccc(C(F)(F)F)n2)cc(-n2cc([C@]3(O)CC[C@H](C(=O)O)CC3)nn2)c1", "recombinant human GST-Syk (Homo sapiens)", 6.64),
    ("Cc1cc(Nc2ncc(F)c(C(F)F)n2)cc(-c2cn(CC(C)(O)C(C)(C)O)nn2)c1 (stereo not shown) [Example 21.34]", "recombinant human GST-Syk (Homo sapiens)", 7.74),
    ("Cc1cc(Nc2nccc(C(F)(F)F)n2)cc(-c2cn(CC3(O)CCC(C(=O)O)C(C)(C)C3)nn2)c1 (stereo not shown) [Example 3.4]", "recombinant human GST-Syk (Homo sapiens)", 7.09),
]

// query pIC50 value for entry Cc1cc(Nc2cc(OC3CCCCC3)ccn2)nc(-c2cn(C(C)c3ccc(C(=O)O)cc3)nn2)c1 (stereo not shown)
7.58

# query: pIC50 of entry "Cc1cc(Nc2cc(C(F)(F)F)ccn2)nc(-c2cn(C[C@H](O)C(N)=O)nn2)c1"
8.47
